Value Kind: melting point

Some solved entries appear below for comparison.
O=c1c2ccccc2oc2cc(OCCO)c(Cl)cc12 :: 153 to 156 °C
CNc1c(S(=O)(=O)C(F)(F)F)c(C)nn1-c1c(Cl)cc(C(F)(F)F)cc1Cl :: 139 to 140 °C
CCON=C(CC)C1=C(O)CC(c2ccc(NC(=O)OC)cc2)CC1=O (stereo not given) :: 160 to 161 °C
OCCCCOC(c1ccccc1)(c1ccccc1)c1ccccc1 :: 73 to 74 °C

Query: Entry CCOC(=O)C(S)(C#N)C1=NC(C)Cc2cc(OC)c(OC)cc21 (stereo not given) : reported melting point = ?
Result: 128 to 130 °C

Query: Reported melting point for CCCC=CCC1CC(=O)N(c2cc(Cc3n[nH]c(=O)c4ccccc34)ccc2F)C1=O (stereo not given) : what is it?
Result: 146 to 149 °C

Query: Returns the measured melting point for the input compound. Input: O=C(O)c1cc(C(=O)O)c2c(c1)C(C(=O)O)CC(c1ccccc1)N2 (stereo not given)
Result: 300 °C

Query: Any idea what melting point was measured for O=C1NC(=O)C(=Cc2ccc3c(c2)CCC(Cc2ccccc2)N3Cc2ccccc2)S1 (stereo not given) ?
Result: 199 to 201 °C

----------
Reported melting point by item:

Examples with answers:
Cn1nc(-c2sc(C(=O)NCc3ccccn3)nc2-c2ccccc2)ccc1=O :: 189 to 190 °C
C=CCCC(=O)N1CCc2nnc(N(C)N)cc2C1 :: 128 to 130 °C
N=c1sc2cc(OC(F)(F)F)ccc2n1CCS(=O)c1ncccn1 (stereo unspecified) :: 120 °C
CC1(C)c2ccccc2C(C)(C)C1(S)CCO :: 85 to 87 °C
CC1CCC2(C)C(=CCC3C4CC(Br)C(=O)C4(C)CCC32)C1 (stereo unspecified) :: 186 to 188 °C

Query: May I ask what melting point has been recorded for "COC(=O)[C@H]1C[C@H](n2c(Br)c(-c3cccc(OCc4ccccc4)c3)c3c(N)ncnc32)C1" ?
Result: 124 to 125 °C

Query: Requested read-out: melting point. Entry: "CCOC(=O)C(=O)c1cc(C)c(C(=O)c2ccccc2[N+](=O)[O-])n1C"
Result: 138 to 140 °C

Query: Item under review: "COCOc1ccc2c(c1)OC(C)(C)CC2=O" . Reported melting point?
Result: 77 to 79 °C

Query: Record request: melting point value, item "CN(C)Cc1ccccc1Sc1ccc(F)cc1N"
Result: 56 to 58 °C

Query: What value of melting point has been reported for the following compound? "CC(=O)c1cc(Cc2ccccc2)c(O)c2ccccc12"
Result: 139 to 141 °C

Query: May I ask what melting point has been recorded for COc1ccc(C2(O)CCN(CC3CN(c4cccc(OC)c4)C(=O)O3)CC2)cc1 (stereo unspecified) ?
Result: 158 to 160 °C

----------
Listing: melting point of selected compounds

Some entries whose results are on file:
CCc1nn2c(c1Oc1cc(Cl)cc(Cl)c1)C(=O)NCC2 :: 220 to 223 °C
COc1cccc(NC(=O)NC2N=C(c3ccccc3)c3ccccc3N(C)C2=O)c1 (stereo not given) :: 216 to 219 °C
CC(O)c1cc2c(s1)C(=O)c1c(C(C)O)csc1C2=O (stereo not given) :: 218 to 219 °C

Query: What value of melting point has been recorded for this entry: "O=C(Nc1cccc2c1C(=O)c1c-2n[nH]c1-c1ccc(N2CCC(N3CCCCC3)CC2)cc1)NN1CCOCC1"
Result: 233 °C

Query: # get_value(readout='melting point', item= "CC1(C)CC(=O)c2c(Sc3ccccc3)sc(-c3cc[nH]n3)c2C1" )
Result: 231 to 234 °C

----------
Readings of melting point for the listed compounds

Cn1nc(-c2ccnc(N[C@H]3CC[C@H](O)CC3)n2)c2ccccc21 :: 180 to 183 °C
CN1C2=NCCN2C(=O)c2cc(Cl)ccc21 :: 200 to 202 °C
Cc1nnc2nc(-c3cccc(C(F)(F)F)c3)ccn12 :: 232 to 234 °C

Below: the item to evaluate.
Query: melting point for CCCc1c2c(cc3c(=O)cc(C(=O)OCC)oc13)C(O)C(C(=O)OCC)(C(=O)OCC)O2 (stereo unspecified) ?
Result: 131 to 133 °C

----------
Listing of entries alongside the reported melting point.

COc1cc(C=Cc2ccc(Cl)cc2)ccc1O :: 121 to 124 °C
CCCS(=O)c1cccnc1S(=O)(=O)NC(C)(C)C (centres undefined) :: 138 to 140 °C
CC1(C)CC(NC(=O)c2cc([N+](=O)[O-])cc([N+](=O)[O-])c2)CC(C)(C)N1 :: 220 to 222 °C
O=C(O)CCCCN1CCC(Cc2ccccc2)CC1 :: 148 to 151 °C
CCN(CC)c1ccc2c(c1)Oc1cc(OC)c(N(c3ccccc3)c3ccccc3)cc1C2c1ccccc1C(=O)OC (centres undefined) :: 117 to 119 °C

Query: Would you mind telling me what melting point value was observed for "O=C(CSc1ccnc2ccccc12)c1ccc(OCc2ccccc2)cc1" ?
Result: 135 to 136 °C

Query: # get_value(readout='melting point', item= "CCOC(=O)CNC(=O)C(C)(C)c1ccc(C2=NC(C)(C)Cc3cc(OC)c4c(c32)CC(C)(C)O4)cc1" )
Result: 133 to 138 °C

----------
melting point overview

Examples with their reported melting point follow.
O=C(c1ccc(O)cc1)c1ccc([N+](=O)[O-])cc1 :: 196 °C
CC(C)c1cc(O)c(O)c(C(=O)O)c1 :: 151 to 152 °C
Cc1ccc(-c2cccc(/C=C/C(=O)Nc3ccc(CN4CCCCC4CCO)cc3)c2)cc1 (configuration not stated) :: 142 to 143 °C
Fc1cccc(CC[C@H]2CN(Cc3ccccc3)CCN2Cc2ccccc2)c1 :: 69 to 71 °C
CCN(C)CCOc1ccc(/C=C/C(=O)O)cc1 :: 206 °C

# input for lookup
Query: # lookup: melting point of "COc1cccc(CNC(=O)c2cc3c(=O)n(CCC(=O)c4ccccc4)c(=O)n(C)c3s2)c1"
Result: 188 to 191 °C

----------
Value Kind: melting point

O=C(O)CCc1ccc(OCCSCCO)cc1 :: 64 to 65 °C

Query: // lookup melting point for "CC(C)(C(=O)c1ccccc1)C(N)=S"
Result: 172 to 175 °C

Query: Record request: melting point value, item "N#Cc1c(N2CCCCC2)cccc1[N+](=O)[O-]"
Result: 119 to 121 °C

Query: I'd like to know its melting point. The molecule in question is "Cc1cc(F)ccc1-c1nc(OCCN)nc2c1ccc(=O)n2-c1c(F)cccc1F"
Result: 96 to 99 °C

----------
Let's look at some compounds and their measured melting point.

Some solved entries appear below for comparison.
CC(C)S(=O)(=O)c1snc(OC[Si](C)(C)C)c1C#N :: 98 to 99 °C
O=C(c1ccc(CNc2nc(-c3ccccc3)nc3ccccc23)cc1)N1CCN(c2ncc(Cc3ccccc3)cn2)CC1 :: 216 to 217 °C
COc1cccc([C@H]2O[C@H](CC(=O)Nc3cc(C(=O)O)ccc3F)C(=O)N(CC(C)(C)COC(C)=O)c3ccc(Cl)cc32)c1OC :: 146 to 149 °C
O=C(Nc1cccc(NC2=CC(=O)c3ccccc3C2=O)c1)c1ccccc1 :: 185 °C
COc1cccc(C23CC(=O)NC(=O)C2=CCC(C)C3)c1 (centres undefined) :: 218 to 221 °C
Cc1nnc(S(C)(=O)=O)o1 :: 70 to 71 °C

Query: Fill blank: measured melting point of the compound "Cc1nnc(-c2ccc3occ(C(=O)N4CCOCC4)c3c2)o1" is ____.
Result: 168 to 169 °C

Query: Param item = "CC(C)(C)NC(=O)c1cnc(Cl)cc1-c1ccc(F)cc1" ; retrieve measured melting point.
Result: 168 to 173 °C

Query: Consider the compound O=C(O)COc1cc2c(c(Cl)c1Cl)C(=O)C(Cl)(C1CCCCC1)C2 (centres undefined) and give its measured melting point.
Result: 142 to 145 °C

----------
Value Kind: melting point

C=CCCCSC1NN=C(c2ccncc2)N1c1ccccc1 (stereo unspecified) :: 132 to 133 °C

Query: Look at this compound and give its reported melting point. "COC(=O)c1ccc(C(=O)OC)c(Nc2ccccc2)c1"
Result: 85 to 87 °C

Query: What value of measured melting point is listed for "CC1(n2cc(C(=O)O)c(=O)c3cc(F)c(F)c(F)c32)CC1" ?
Result: 292 to 294 °C

Query: Given the entry COC(=O)C1(Cl)SC=CC1=O (stereo unspecified) , report its measured melting point.
Result: 70 to 71 °C

Query: Value lookup for melting point; key = "CN1CC=C(c2c[nH]c3ccc(C[C@H]4COC(=O)N4)cc23)CC1"
Result: 225 to 227 °C

Query: Which melting point is listed for "CCOC(=O)c1cc2cccc(O)c2[nH]1" ?
Result: 197 to 199 °C

Query: Returns the measured melting point for the input compound. Input: "COC(=O)c1ccc(CNS(C)(=O)=O)cc1N"
Result: 120 to 121 °C

Query: Would you kindly share the measured melting point for "CON1C=C2C=C(SC)N=C(Cl)N2N1" ?
Result: 243 to 244 °C

Query: Param item = "CC(=O)N[C@H]1C[C@@H](c2cc(NC(=O)Cc3cccc4ccccc34)n[nH]2)C1" ; retrieve measured melting point.
Result: 209 °C

Query: Returns the measured melting point for the input compound. Input: "Clc1cccc2c1Nc1ccccc1N=C2N1CCN(Cc2ccc3c(c2)OCO3)CC1"
Result: 160 to 162 °C

Query: Need melting point of "COc1ccc(-c2nc(CCl)nc3cc(OC)c(OC)cc23)cc1OC" , thanks.
Result: 183 to 184 °C
